Biological target: Serine/threonine-protein kinase PLK3 (Homo sapiens) (UniProt Q9H4B4)
Sequence (Q9H4B4 whole entry, looked up): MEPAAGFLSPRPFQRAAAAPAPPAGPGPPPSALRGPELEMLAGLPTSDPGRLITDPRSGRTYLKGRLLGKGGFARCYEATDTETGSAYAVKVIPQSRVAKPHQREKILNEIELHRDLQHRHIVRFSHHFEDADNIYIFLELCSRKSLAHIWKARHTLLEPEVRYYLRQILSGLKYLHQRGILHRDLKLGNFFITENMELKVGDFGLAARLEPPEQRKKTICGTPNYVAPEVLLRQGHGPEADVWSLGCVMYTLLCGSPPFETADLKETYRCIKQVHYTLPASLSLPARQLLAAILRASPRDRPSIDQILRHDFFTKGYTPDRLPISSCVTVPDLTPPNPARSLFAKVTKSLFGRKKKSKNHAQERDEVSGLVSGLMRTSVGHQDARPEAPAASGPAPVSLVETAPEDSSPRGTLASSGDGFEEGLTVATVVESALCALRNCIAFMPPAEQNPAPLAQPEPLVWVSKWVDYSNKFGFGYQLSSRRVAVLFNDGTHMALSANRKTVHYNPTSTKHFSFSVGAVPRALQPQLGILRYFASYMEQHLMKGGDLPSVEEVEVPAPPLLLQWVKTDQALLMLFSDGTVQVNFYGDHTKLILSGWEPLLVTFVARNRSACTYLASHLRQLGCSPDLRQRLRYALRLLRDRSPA
Settings: at 1 µM
Description: Millipore: Percentage of residual kinase activity of PLK3 at 1uM relative to control. Control inhibitor: Wortmannin at 100.0uM. Buffer: 8 mM MOPS pH 7.0, 0.2 mM EDTA

chemical-string	residual activity / %
CC(C)(C)n1nc(Cc2cccc3ccccc23)c2c(N)ncnc21	94
O=c1cc(N2CCOCC2)oc2c1ccc1ccccc12	99
O=C(CCCc1ccc(-c2ccccc2F)cc1)Nc1ccc(O)cc1	99
CC(C)[C@H](CO)Nc1nc(Nc2cc(N)cc(Cl)c2)c2ncn(C(C)C)c2n1	99
Nc1n[nH]c2nc3ccccc3nc12	89
NC(=O)c1cccc(-c2cc(Nc3ccc(OC(F)(F)F)cc3)ncn2)c1	100
O=C1Cc2c([nH]c3ccc(Br)cc23)-c2ccccc2N1	95
COc1cc2nccc(Oc3ccc(NC(=S)NC(=O)c4ccccc4C)cc3)c2cc1OC	80
O=C(c1ccccc1)c1ccc(N2CCOCC2)cc1O	91
Nc1ncnc2c1cnn2-c1ccccc1	93
CC(C)(C)c1nc2c3ccc(F)cc3c3c(=O)[nH]ccc3c2[nH]1	55
Fc1ccc(-c2nc3n(c2-c2ccncc2)CCS3)cc1	100
